molecular target: methionine aminopeptidase-2 (MetAP2) (Homo sapiens, UniProt P50579); construct: made in house; host or cells: insect cells, baculovirus system (secreted, purified from culture supernatant); assay: Inhibition of MetAP2 enzyme activity (96-well, Met-Ala-Ser substrate, L-amino acid oxidase/peroxidase/ortho-dianisidine, 450 nm); format: biochemical; details: IC50, recombinant MetAP2 4 μg/mL, pH 7.4, Met-Ala-Ser substrate, 20 minutes
Sequence (P50579 whole entry): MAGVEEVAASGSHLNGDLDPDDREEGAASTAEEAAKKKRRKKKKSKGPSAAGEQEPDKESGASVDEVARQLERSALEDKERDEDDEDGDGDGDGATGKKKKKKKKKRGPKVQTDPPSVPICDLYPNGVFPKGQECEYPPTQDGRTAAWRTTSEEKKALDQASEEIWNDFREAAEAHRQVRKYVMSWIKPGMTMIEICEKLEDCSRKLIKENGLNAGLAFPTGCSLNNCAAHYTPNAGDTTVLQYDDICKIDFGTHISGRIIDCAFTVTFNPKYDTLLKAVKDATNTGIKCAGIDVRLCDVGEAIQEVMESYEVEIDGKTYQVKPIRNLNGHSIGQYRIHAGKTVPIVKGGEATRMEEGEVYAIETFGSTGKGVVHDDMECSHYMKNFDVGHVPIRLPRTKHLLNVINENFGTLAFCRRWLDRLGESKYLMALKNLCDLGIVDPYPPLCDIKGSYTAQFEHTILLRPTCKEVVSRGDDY
pIC50: −log10 of the molar value. Structures can show the parent of a compound that is named as a salt.
Short version: pIC50 at least 6 is TRUE, less is FALSE.

>>> answer_label("CC(C)CC(C)NC(=O)C(O)[C@H](N)CC1CCCCC1 (mixture of isomers) [Example 231, Hydrochloride]")
"FALSE"
>>> answer_label("N[C@H](CC1CCCCC1)C(O)C(=O)NCc1ccc(C(F)(F)F)cc1 (mixture of isomers) [Example 158]")
"FALSE"
>>> answer_label("N[C@H](CC1CCCCC1)C(O)C(=O)NC1C2CC3CC(C2)CC1C3 (mixture of isomers) [Example 203, Hydrochloride]")
"FALSE"
>>> answer_label("CSCC[C@@H](N)C(O)C(=O)NCCc1ccccn1 (some centres unmarked) [Example 10]")
"FALSE"
>>> answer_label("CC(NC(=O)C(O)[C@H](N)CC1CCCCC1)c1cccc2ccccc12 (some centres unmarked) [Example 101, Hydrochloride]")
"TRUE"

Turning to the following compound.
Quick check, pIC50 >= 6? Cc1ncc([N+](=O)[O-])n1CCNC(=O)C(O)[C@H](N)CC1CCCCC1 (some centres unmarked) [Example 56, dihydrochloride]
FALSE

Reference source for all entries: patent US6242494A
